Measurement record for UniProt:P28223; quantity recorded: Ki.
Sequence (P28223 whole entry): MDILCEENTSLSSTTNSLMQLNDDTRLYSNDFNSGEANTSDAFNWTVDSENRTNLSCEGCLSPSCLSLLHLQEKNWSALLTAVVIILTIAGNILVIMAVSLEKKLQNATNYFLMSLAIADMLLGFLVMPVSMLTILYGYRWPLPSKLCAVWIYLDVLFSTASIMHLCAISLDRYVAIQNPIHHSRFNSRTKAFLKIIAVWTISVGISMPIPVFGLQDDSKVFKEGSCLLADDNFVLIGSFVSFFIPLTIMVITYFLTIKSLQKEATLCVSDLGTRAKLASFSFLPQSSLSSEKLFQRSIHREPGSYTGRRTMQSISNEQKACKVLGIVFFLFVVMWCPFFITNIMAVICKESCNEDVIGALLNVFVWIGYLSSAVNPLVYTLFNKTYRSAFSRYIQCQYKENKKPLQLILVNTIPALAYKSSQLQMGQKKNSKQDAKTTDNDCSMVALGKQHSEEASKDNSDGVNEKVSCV
Observable: Ki (µM)

>>> data_value("CN(C)C[C@@H]1C[C@H]2c3ccccc3Oc3ccc(F)cc3[C@H]2O1")
0.104
>>> data_value("N#Cc1ccc2on(C[C@@H]3C[C@H]4c5ccccc5Oc5ccc(Br)cc5[C@H]4O3)c2c1")
0.185
>>> data_value("COc1ccc2c(c1)[C@H]1O[C@H](CN(C)C)C[C@H]1c1ccccc1O2")
0.022
>>> data_value("CN(C)C[C@H]1C[C@H]2c3ccccc3Oc3ccccc3[C@@H]2O1")
0.092
>>> data_value("Nc1ccc2on(C[C@@H]3C[C@H]4c5ccccc5Oc5ccc(Br)cc5[C@H]4O3)c2c1")
0.255

----------
# Target under test: 5-hydroxytryptamine receptor 2C (Homo sapiens, UniProt P28335)
# Sequence (P28335 whole entry): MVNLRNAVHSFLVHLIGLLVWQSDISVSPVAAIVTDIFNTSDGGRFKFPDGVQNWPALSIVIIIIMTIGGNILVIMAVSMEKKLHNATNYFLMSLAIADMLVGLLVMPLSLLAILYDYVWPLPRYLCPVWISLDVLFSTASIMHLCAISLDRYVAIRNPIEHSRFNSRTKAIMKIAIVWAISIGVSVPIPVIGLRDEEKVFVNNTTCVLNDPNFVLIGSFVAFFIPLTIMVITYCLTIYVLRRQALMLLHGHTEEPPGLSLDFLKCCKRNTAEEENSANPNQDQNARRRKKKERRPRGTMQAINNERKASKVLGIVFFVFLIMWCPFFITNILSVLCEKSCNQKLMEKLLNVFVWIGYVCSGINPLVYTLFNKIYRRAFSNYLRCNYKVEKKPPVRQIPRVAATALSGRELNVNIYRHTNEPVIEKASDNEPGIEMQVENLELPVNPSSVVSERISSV
Observable: Ki (nM)

>>> data_value("CN(C)C[C@H]1C[C@@H]2c3ccccc3Oc3ccccc3[C@H]2O1")
179
>>> data_value("Brc1ccc2c(c1)[C@H]1O[C@H](Cn3oc4ccc(-c5ccccc5)cc43)C[C@H]1c1ccccc1O2")
183
>>> data_value("Brc1ccc2c(c1)[C@H]1O[C@H](Cn3oc4ccc(CN5CCOCC5)cc43)C[C@H]1c1ccccc1O2")
4100
>>> data_value("CN(C)C[C@H]1C[C@H]2c3ccccc3Oc3ccc(F)cc3[C@H]2O1")
63

----------
# System: Rattus norvegicus
# Assay summary: In vivo effective for the antagonism of m-chlorophenyl-piperazine induced anxiety in rat
# Assay type: functional
Observable: ED50

>>> data_value("COc1ccc2c(c1)[C@H]1O[C@H](CN(C)C)C[C@H]1c1ccccc1O2")
"> 2.5 mg/kg"
>>> data_value("Cc1ccc2on(C[C@@H]3C[C@H]4c5ccccc5Oc5ccc(Br)cc5[C@H]4O3)c2c1")
"0.8 mg/kg"
>>> data_value("CN(C)C[C@H]1C[C@H]2c3ccccc3Oc3ccc(Cl)cc3[C@H]2O1")
"> 2.5 mg/kg"
>>> data_value("CN(C)C[C@@H]1C[C@H]2c3ccccc3Oc3ccc(F)cc3[C@H]2O1")
"0.5 mg/kg"
>>> data_value("CN(C)C[C@@H]1C[C@H]2c3ccccc3Oc3ccc(Cl)cc3[C@H]2O1")
"> 2.5 mg/kg"
>>> data_value("CN(C)C[C@H]1C[C@H]2c3ccccc3Oc3ccccc3[C@@H]2O1")
"> 2.5 mg/kg"
>>> data_value("CN(C)C[C@H]1C[C@H]2c3ccccc3Oc3ccc(F)cc3[C@H]2O1")
"> 2.5 mg/kg"
>>> data_value("CN(C)C[C@@H]1C[C@H]2c3ccccc3Oc3ccc(Br)cc3[C@H]2O1")
"> 2.5 mg/kg"
